- Target under test: UniProt:P57059
// NB: equality with 800 nM counts as F; only IC50 strictly below is T

Cc1ccc(CCOc2ccn3c(-c4ccc(C#N)cc4)cnc3c2)cn1 [Example 41]	T

Would you kindly verify if IC50 of N#Cc1ccc(-c2cnn3cc(C(=O)NCc4nc5cccnc5[nH]4)ccc23)cc1 [Example 35] is strictly less than 800 nM? F

Another: CC1(COc2ccc3c(c2)ncn3-c2ccc3cccc(N4CC5(CC(N)C5)C4)c3n2)COC1 [Example 2] T

Now this one: CCc1nnc(-c2ccc(-c3cnc4cc(-c5cnn(C)c5)ccn34)cc2OC)o1 [Example 57] T

Could you do the same for NC1CCN(c2cccc3ncc(-n4cnc5cc(OCC6CS(=O)(=O)C6)ccc54)nc23)CC1 [Example 14] , please? T

----------
log10(IC50): recorded values
- Target under test: Recombinant SIK2 (Homo sapiens (Human), UniProt Q9H0K1)
- Sequence (Q9H0K1 whole entry): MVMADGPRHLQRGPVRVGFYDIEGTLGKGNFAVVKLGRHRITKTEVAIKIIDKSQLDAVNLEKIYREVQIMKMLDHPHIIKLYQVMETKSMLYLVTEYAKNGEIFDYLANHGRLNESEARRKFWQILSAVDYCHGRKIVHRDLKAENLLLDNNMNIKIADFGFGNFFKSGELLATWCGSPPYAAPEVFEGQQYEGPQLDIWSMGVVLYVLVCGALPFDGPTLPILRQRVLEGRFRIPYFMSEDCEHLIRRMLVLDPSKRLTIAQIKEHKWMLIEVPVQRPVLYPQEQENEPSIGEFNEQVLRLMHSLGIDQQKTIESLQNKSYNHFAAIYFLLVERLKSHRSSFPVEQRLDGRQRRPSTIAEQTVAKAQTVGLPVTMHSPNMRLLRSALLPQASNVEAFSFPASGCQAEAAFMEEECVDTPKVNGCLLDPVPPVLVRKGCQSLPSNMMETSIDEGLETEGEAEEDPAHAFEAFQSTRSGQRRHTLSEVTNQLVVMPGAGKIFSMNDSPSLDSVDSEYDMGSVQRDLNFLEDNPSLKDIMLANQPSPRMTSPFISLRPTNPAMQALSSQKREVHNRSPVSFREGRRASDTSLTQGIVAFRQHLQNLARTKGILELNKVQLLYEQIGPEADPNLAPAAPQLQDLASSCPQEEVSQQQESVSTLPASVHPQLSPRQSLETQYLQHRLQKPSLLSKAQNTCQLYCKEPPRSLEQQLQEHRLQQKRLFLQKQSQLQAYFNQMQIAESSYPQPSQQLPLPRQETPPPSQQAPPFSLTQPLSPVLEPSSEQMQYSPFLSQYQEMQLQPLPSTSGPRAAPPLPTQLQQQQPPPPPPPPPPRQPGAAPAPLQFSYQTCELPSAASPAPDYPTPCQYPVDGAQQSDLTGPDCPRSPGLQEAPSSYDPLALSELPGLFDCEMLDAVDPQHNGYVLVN
- Procedure summary: biochemical
- Test parameters: recombinant SIK2 2.5 nM, 1 μM ATP; read-out: SIK2 IC50
- Method: Assays were performed in base reaction buffer (20 mM Hepes (pH 7.5), 10 mM MgCl2, 1 mM EGTA, 0.02% Brij35, 0.02 mg/mL BSA, 0.1 mM Na3VO4, 2 mM DTT, 1% DMSO). Compounds were dissolved in 100% DMSO in a 10 mM stock. […] Thereafter, radioactivity incorporated into the pEY peptide substrate was detected by filter-binding method. Kinase activity data were expressed as the percent remaining kinase activity in test samples compared to DMSO reactions. […]
The base-10 logarithm of IC50, taken with IC50 in nM, is what appears here.

Here's what some known entries look like.
N#Cc1ccc(-c2cnc3cc(-c4cn(C5CC5)nn4)ccn23)cc1 [Example 66]	1.57
Cc1cn(-c2cccc3ccc(-n4cnc5cc(OCC6(C)COC6)ccc54)nc23)cn1 [Example 1]	1.49
N#Cc1ccc(-c2cnc3cc(C(=O)NCc4cn5ccccc5n4)ccn23)cc1 [Example 24]	1.06
CCn1nnc(-c2ccn3c(-c4ccc(C#N)cc4)cnc3c2)n1 [Example 67]	2.36
CCn1cc(-c2ccn3c(-c4ccc(C#N)nc4)cnc3c2)cn1 [Example 46]	1.15
COc1cc(-c2cnc3cc(OCC4(C)COC4)ccn23)cc(OC)c1C#N [Example 40]	0.99

Query: log10(IC50); subject: CCc1nnc(-c2c(Cl)cc(-c3cnc4cc(-c5cnn(C)c5)ccn34)cc2Cl)o1 [Example 59] 2.43

Same read-out for CN1CC(c2cccc3ccc(-n4cnc5cc(OCC6(C)COC6)ccc54)nc23)C1 [Example 15] ? 0.28

----------
IC50 values recorded for SIK1 (Homo sapiens (Human), UniProt P57059)
# output: bare number, implied unit nM

Below are worked cases with known answers.
N#Cc1ccc(-c2cnc3cc(-c4cnn(C5CC5)c4)ccn23)cc1	2.16
CC1(COc2ccc3c(c2)ncn3-c2ccc3cccc(N4CC(N)C4)c3n2)COC1	138
CCn1cc(-c2ccn3c(-c4ccc(-c5noc(C)n5)cc4)cnc3c2)cn1	1130

In the following, a different molecule is considered.
Give its IC50 value. Item: CN1CCOCC12CCN(c1cccc3ccc(-n4cnc5cc(OCC6(C)COC6)ccc54)nc13)CC2 37.8

----------
- Target under test: SIK1 (Homo sapiens (Human), UniProt P57059)
- Sequence (P57059 whole entry): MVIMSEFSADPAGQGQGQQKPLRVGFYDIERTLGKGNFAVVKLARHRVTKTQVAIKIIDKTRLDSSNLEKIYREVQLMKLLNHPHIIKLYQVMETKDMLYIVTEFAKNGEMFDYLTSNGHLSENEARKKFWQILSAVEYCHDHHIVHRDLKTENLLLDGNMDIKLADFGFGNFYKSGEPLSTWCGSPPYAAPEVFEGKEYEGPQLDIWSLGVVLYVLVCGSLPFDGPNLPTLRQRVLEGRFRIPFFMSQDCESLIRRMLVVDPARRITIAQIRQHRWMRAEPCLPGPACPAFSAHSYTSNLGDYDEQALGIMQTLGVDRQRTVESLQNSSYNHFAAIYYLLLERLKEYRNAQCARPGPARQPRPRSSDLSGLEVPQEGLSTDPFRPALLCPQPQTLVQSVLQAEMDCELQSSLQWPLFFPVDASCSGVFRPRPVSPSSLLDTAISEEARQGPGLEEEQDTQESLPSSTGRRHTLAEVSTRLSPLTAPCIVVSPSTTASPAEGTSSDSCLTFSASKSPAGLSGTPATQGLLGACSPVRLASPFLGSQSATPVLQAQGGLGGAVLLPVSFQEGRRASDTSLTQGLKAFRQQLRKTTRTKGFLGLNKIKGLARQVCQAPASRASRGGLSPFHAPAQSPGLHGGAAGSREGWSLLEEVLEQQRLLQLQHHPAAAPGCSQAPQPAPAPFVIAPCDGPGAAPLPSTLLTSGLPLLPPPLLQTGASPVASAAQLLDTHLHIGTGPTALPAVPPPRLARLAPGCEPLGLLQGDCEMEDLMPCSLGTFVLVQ
pIC50: −log10 of the molar value.
Think of 8 as a floor: if pIC50 stands on it or above, it is Y; beneath it, N.

CCn1cc(-c2ccc3c(-c4ccc(C#N)cc4)cnn3c2)cn1	Y
COc1cc(-c2cnc3cc(-c4cnn(C)c4)ccn23)cc(OC)c1-c1nnc(C2CC2)o1	Y
CCc1nc(-c2c(OC)cc(-c3cnc4cc(-c5cnn(C)c5)ccn34)cc2OC)no1	N
COc1ccc(OC)c(-c2cnc3cc(C(=O)NCc4cccnc4)ccn23)c1	N
N#Cc1ccc(-c2cnc3cc(C(=O)NCc4nc5ccncc5[nH]4)ccn23)cc1	N
CN1CCC(c2cccc3ccc(-n4cnc5cc(OCC6(C)COC6)ccc54)nc23)C1 (centres unmarked)	N

Please tell me: is the compound CCc1nnc(-c2c(OC)cc(-c3cnn4cc(-c5cnn(C6CC6)c5)ccc34)cc2OC)o1 at or over 8 in terms of pIC50? N
